assay: PET hydrolysis, aromatic products released after 48 h (umol product/mg enzyme); higher = more PET depolymerization activity; details: substrate: cryPow; 60 °C; pH 6.5
quantity measured: PET hydrolysis
Answers are plain numbers.

Before answering, review these 3 worked examples.
1) ADNPYQRGPDPTRTSVTAVNGPFANTSVSVPTGHGFNGGRIYYPTDTSQGTFGAIAISPGYTALFSAELAWMGPWLASHGFVVIGIETNSRNDFDTARGTQLLAALDYLTQQSPVRDRVDPSRLAVSGHSMGGGGALSAAMRRASLKAVVGITPYSPSSNLANDRVPTMIISGQADTVVTPSYALGLYNSIPATTESVYLEVAGGDHGFMVGRSNPVLVRTMLPFLKMFIDNDTRYSQFLCPLLDNSGVVTYRSTCPLLPTDPTTPPTGTPTPTPTTPAPTTPPPTTPPGSASEIRGTQSNRCIDVPNASRNNGTRVQLYDCNRQTNQAWTYTANKQLQVYGNMC [ESM106] | 4.5
2) ADNPYQRGPDPTPASVGASRGTFATAQVSVPAGNGFGGGVIYYPTDTSQGRFGAVAVVPGYTATWAAEGAWMGPWLASFGFVVIGIDTNSRNDWDTARGTQLLAALDYLTQRSSVRDRVDASRAAVMGHSMGGGGAIYAALQRPSLKTTVGLAPFSASQTLNNMRVPTMLLAGQNDGTTTPASIRNYYGQVPSGVEKAYLELTGAGHGFPTSNNPTMMRNVIPWLKIFVDSDTRYTQFLCPLSNTNGIRSYESTCPLVPSPVPTDPPTSAPPTSTPPTTPPPTTPPPTTPAPGGPCAASYRTVNSWSGGFQGEVTVRAGGAPINGWTVRWTLGGGQSISQVWNGTLSTSGSTATVRNAPYNGSLPASGSTTFGFIANGSPSAPTLTCASP [TEP013] | 6
3) VQIGPAPTKASLEASRGPFTVATTRLSANGHGGGTIYYPTNAGAKVGVIAIVPGYLSYQSSIEWWGPRLASHGFAVVTIDTLTIYDQPSSRSSQQLRALDQVVALGSKSTSPLYNKVDGSRTGVMGWSMGGGGSLISAQNRPSIKAAAPQAPWNTTSNFSSLTVPTLIFACQADVVAPILSHAVPFYNSMSRNPKQYLERTAGDHFCFNNANPTVGLKGVAWMKRFIDGDTRYTSFACSNPNALGFSSFRTERCS [ESM053] | 6

Read the next record carefully.
Task: Data request, read-out PET hydrolysis, for DEIGQAPTAGNITGNGSFTTTSESISSLVSGFGGGRVYYPTTAGKYPVVAISPGFTATWSSLSWIGPRLSSWGFVVVGIETNSIYDQPASRGSQLLAALNWAVNSSSSAVRARVDGSRRGVAGHSMGGGGTLEALAADTTGLVKAGVPIAPWNSDKTWNNVSEPVMIVGGQSDTVAPVASHSIPFYNTLAGPKGYVELTGASHFFPQSTNATLSRALVAWFKRWLNQDSRFTPYTCGFSGLAVSDFRSNAC [ESM090]
Output: 35
